- Test protocol: Cmax in C57BL/6 mouse plasma at 25 mg/kg, ip after 24 hrs by LC/MS/MS analysis
- Assay type: ADME, organism-based
- Set-up: dose 25 mg/kg, route intraperitoneal
Quantity name: Cmax (nM)
Lab book: enter the figure in nM, no units written.

# compound O=C(CCCCCC(=O)N/N=C/c1ccc(-c2cccnc2)cc1)NO ; its Cmax = 3.72

---

- Test protocol: Cmax in C57BL/6 mouse plasma at 25 mg/kg, ip after 12 hrs by LC/MS/MS analysis
- Assay type: ADME, organism-based
- Set-up: dose 25 mg/kg, route intraperitoneal
Quantity name: Cmax
Note to self: number, then unit, no commentary.

Consider O=C(CCCCCC(=O)N/N=C/c1ccc(-c2cccnc2)cc1)NO . Its measured Cmax is 6.45 nM
